This section presents compounds with their documented IC50 values.
# SYSTEM_UNDER_TEST: human ACC2 (Homo sapiens)
# Construct: made in house; host or cells: insect cells (baculoviral expression system)
# Sequence (O00763 129-2458 limits assumed): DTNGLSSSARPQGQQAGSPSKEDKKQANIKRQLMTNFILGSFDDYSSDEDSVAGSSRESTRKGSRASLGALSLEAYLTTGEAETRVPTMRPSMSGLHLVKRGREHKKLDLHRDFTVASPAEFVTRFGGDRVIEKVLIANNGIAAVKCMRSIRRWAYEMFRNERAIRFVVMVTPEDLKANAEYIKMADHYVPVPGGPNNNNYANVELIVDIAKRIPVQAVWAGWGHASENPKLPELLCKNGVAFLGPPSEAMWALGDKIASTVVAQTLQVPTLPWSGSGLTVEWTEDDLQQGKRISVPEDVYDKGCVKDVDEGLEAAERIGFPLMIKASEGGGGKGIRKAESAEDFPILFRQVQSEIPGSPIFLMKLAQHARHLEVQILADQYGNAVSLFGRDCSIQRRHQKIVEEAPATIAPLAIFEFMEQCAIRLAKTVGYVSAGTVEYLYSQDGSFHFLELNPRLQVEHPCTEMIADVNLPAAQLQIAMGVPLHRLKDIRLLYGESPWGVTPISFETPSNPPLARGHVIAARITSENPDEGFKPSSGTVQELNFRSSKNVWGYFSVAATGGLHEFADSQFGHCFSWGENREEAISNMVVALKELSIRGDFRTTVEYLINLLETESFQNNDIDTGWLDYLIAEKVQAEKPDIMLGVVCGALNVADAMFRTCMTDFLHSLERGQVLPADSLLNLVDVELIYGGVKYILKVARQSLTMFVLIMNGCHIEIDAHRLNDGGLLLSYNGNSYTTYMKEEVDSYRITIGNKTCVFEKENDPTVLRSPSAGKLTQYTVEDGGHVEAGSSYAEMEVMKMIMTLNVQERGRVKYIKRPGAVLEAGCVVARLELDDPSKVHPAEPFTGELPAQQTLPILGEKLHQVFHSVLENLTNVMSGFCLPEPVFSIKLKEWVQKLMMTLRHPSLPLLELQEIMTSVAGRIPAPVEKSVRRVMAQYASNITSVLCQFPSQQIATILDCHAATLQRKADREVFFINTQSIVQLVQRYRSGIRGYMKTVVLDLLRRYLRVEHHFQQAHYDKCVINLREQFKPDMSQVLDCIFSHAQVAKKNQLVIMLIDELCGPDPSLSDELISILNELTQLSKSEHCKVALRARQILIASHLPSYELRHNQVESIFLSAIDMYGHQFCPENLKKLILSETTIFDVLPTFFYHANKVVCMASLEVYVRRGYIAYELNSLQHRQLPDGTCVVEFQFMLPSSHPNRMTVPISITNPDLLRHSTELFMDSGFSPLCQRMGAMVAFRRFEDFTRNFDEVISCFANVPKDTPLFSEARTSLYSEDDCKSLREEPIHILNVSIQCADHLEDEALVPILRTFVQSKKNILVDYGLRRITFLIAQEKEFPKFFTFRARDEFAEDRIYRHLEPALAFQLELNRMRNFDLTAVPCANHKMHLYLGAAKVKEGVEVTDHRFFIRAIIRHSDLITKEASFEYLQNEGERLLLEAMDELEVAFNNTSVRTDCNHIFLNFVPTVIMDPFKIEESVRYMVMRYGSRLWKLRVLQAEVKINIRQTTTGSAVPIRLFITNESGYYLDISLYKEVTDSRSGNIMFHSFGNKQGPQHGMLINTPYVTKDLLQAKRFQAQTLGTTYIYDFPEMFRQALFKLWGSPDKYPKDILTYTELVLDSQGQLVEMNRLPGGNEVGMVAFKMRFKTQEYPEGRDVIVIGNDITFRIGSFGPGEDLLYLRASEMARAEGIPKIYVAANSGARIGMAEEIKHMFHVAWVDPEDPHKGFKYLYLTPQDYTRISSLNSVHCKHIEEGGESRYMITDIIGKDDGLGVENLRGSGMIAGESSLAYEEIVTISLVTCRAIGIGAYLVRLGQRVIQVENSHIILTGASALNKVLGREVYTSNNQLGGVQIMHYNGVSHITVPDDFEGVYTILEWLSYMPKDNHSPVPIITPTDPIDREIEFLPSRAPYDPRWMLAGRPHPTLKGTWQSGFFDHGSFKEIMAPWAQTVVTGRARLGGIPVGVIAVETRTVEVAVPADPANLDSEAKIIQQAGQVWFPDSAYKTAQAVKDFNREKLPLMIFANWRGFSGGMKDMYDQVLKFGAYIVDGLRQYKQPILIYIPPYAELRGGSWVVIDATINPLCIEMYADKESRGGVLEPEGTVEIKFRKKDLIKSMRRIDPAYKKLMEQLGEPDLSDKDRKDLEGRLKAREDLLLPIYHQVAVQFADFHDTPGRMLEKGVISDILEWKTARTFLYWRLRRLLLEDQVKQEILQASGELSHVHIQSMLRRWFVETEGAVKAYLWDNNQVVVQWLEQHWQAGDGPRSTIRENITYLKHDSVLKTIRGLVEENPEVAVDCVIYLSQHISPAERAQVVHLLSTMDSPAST
# ASSAY_PROCEDURE: ACC2 assay, spectrophotometric 384 well assay (NADH-linked, coupled lactate dehydrogenase/pyruvate kinase)
# Assay type: biochemical
# RUN_PARAMETERS: ACC2 assay, hACC2 construct lacking 128 N-terminal amino acids, 25° C., 340 nm; read-out: IC50
ENDPOINT: IC50 (nM)

compound=CCCOc1ccc(N2CCC(c3ccc([C@H](C)NC(=O)C(F)(F)F)cc3)CC2)c(OC)c1 endpoint=IC50 result_value=290
compound=C[C@H](NC(=O)C1CC1)c1ccc(C2CCN(c3nc(Oc4ccc(F)cc4)ncc3F)CC2)cc1 endpoint=IC50 result_value=280
compound="CC(=O)N[C@@H](C)c1ccc(C2CCN(c3ccnc(OCC4CC4(F)F)c3)CC2)cc1 (stereo partly shown)" endpoint=IC50 result_value=150
compound=CCOc1ccc(N2CCC(c3ccc([C@H](C)NS(=O)(=O)C4CCC4)cc3)CC2)cc1 endpoint=IC50 result_value=7500
